- target entity: shed MICB005 polypeptide (human) (UniProt Q29980)
- experimental details: capture ELISA (anti-hFc / antibody / shed antigen / biotin-6D4)
observation type: EC50 (µg/mL)
Express your answer in µg/mL, writing the number without its unit.

Data request: Could you share which EC50 value was measured for 13A9 (antibody, human IgG1, kappa, V domains shown) VH: QVQLQQSGAELVRPGTSVKVSCKASGYAFTNYLIEWVKQRPGQGLEWIGAINPGSGATNYNEKFKDKARLTADKSSNTAYLQFSSLTSDDSAVYFCARFLGNYFDNWGQGATLTVSS VL: DIQMTQSPASLSASVGETVTITCRASGNIHSYLAWYQQKQGKSPQLLVYYAETLADGVPSRFSGRGSGTQYSLKINSLQPEDFGSYFCQQFWTTPYTFGGGTKVEIKR ?
Data returned: 0.04

Data request: Now this one: #40 (antibody, V domains shown) VH: QVQLQQSGPELVKPGASVKVSCKASGYAFTKYNIYWVKQSHGKSLEWIGYIDPYNGGTVYNQKFKGKATLTVDKSSSTAYMHLNSLTSEDSAVYYCATTDGYSLFTYWGQGTLVTVSA VL: DIQMTQTTSSLSASLGDRVTITCSAGQGINNYLNWYQQKPDGTVKLLIFYTSSLQSGVPSRFSGSGSGADYSLTISNLEPEDIATYYCQQYSKLPLTFGAGTKLELK
Data returned: 0.73

Data request: Would you mind doing #39 (antibody, V domains shown) VH: QVQLQQSGAELVRPGTSVKVSCKASGYAFTDYLIEWVKQRPGQGLEWIGGINPGSGSTNYNEKFKGKAILTADKSSSTAYMQLSSLTSDDSAVYFCARLDGNYVGYWGQGTTLTVSS VL: DILLTQSPASLSASVGETVTITCRASGNIHNYLAWYQQKQGKSPQLLVYHAKTLADGVPSRFSGSGSGTQYSLKINSLQPEDFGSYYCQHFWSTPWTFGGGTKLEIK as well?
Data returned: 0.1

Data request: Queued: #31 (antibody, V domains shown) VH: EVQLQQSGPELVKPGASVKVSCKASGYAFTKYNIYWVKQSHGKSLEWIGYIDPYNGGTVQNQKFKGKATLTVDKSSSTAYMHLNSLTSEDSAVYYCATTDGYSLFTYWGQGTLVTVSS VL: DIQMTQTTSSLSASLGDRVTISCRASQDIGNYLNWYQQKPDGTVKLLIYYTSRLHSGVPSRFSGSGSGTDYSLTISNLEQEDIATYFCQQGNTLPFTFGSGTKLEIK
Data returned: 0.72

Data request: Same read-out for #34 (antibody, V domains shown) VH: QVQLKQSGPELVKPGASVKVSCKASGYAFTKYNIYWVKQSHGKSLEWIGYIDPYNGGTVQNQKFKGKATLTVDKSSSTAYMHLNSLTSEDSAVYYCATTDGYSLFTYWGQGTLVTVSS VL: DIVLTQSPTTMAASPGEKITITCSASSSISSNYLHWYQQKPGFSPKLLIYRTSNLASGVPARFSGSGSGTSYSLTIGTMEAEDVATYYCQQGSSIPFTFGSGTKLEIK ?
Data returned: 0.56

Origin of values: patent US20250368742A1
